test system: OVCAR-3 ovarian; test: NCI-60 one-dose screen, 48 h; details: 10 µM unless noted
About 83,000 compounds went through this panel and 20% of them were active in at least one assay; those are over-represented in the sample as a whole. Active and inactive are the calls of the source. How the source made its calls: active means growth percent below 10; inactive means the rest.
Choose one outcome from this list and give only that: active, inactive

>  <compound>
CCCCCCCCCN1C(=O)/C(=c2\sc3n(c2=O)C2C(NN=3)N(CC)C(=O)N2CC)c2ccccc21 (stereo not given)

>  <class>
inactive

$$$$
>  <compound>
COc1cc2c(cc1OCCCCn1c(-c3cc(=O)c4ccccc4o3)nc3ccccc31)N=C[C@@H]1CCCN1C2=O

>  <class>
inactive

$$$$
>  <compound>
COc1cc(-c2n[nH]nc2-c2ccc3c(c2)OCCO3)cc(OC)c1OC

>  <class>
active

$$$$
>  <compound>
CN(C)c1nc(N)c(N=O)c(N)n1

>  <class>
inactive

$$$$

Inquiry: Outcome? `CCN(CC)CCSc1c2ccc(Cl)cc2nc2ccc(OC)cc12`
Reply text: inactive

Inquiry: Try this compound too: `CN(C)C/C=C/C(=O)Nc1cc2c(Nc3cccc(Cl)c3F)ncnc2cc1OCCOC(F)F`
Reply text: inactive

Inquiry: Try this compound too: `COc1ccccc1CNCCCN1C(=O)c2ccc3c4c(ccc(c24)C1=O)C(=O)N(CCCNCCCCNCCCCN)C3=O`
Reply text: active

Inquiry: Try this compound too: `COc1cc(NC(=O)CSc2nc3ccc(C)cc3c(=O)n2-c2ccccc2)cc(OC)c1OC`
Reply text: inactive

Inquiry: Try this compound too: CCCCCCCCCCCCCCCCC(Br)C(=O)O (stereo not given)
Reply text: inactive

Inquiry: Try this compound too: `Nc1ccccc1C#C/C=C\C#Cc1cccc(O)c1`
Reply text: inactive

====

system: LOX IMVI melanoma; assay: NCI-60 one-dose screen, 48 h (100 = growth as untreated, 0 = no growth, -100 = all killed); details: 10 µM unless noted
The panel holds about 83,000 compounds, 20% with a hit somewhere; the sample as a whole holds those more often.
Field 'label' (enum: 1 / -1). Set to 1 when growth is strictly under 70%; else -1.

>  <compound>
Cc1ccc2nc(-c3c(N)n[nH]c3CCCO)[nH]c(=O)c2c1

>  <assay system>
LOX IMVI melanoma

>  <class>
-1

$$$$

Inquiry: Does this compound meet the criterion growth < 70%? `CCN(CC)c1cc(/C=C/c2ccc(OC)c(OC)c2)nc2cc(F)c(F)cc12`
Reply text: 1

Inquiry: Try this compound too: `CCN(Cc1ccccc1)c1ccc(SC#N)cc1`
Reply text: 1

Inquiry: Try this compound too: `COc1cccc2nc(Nc3ccc(NC(=O)c4ccc5ncccc5c4)cc3)ccc12`
Reply text: -1

Inquiry: Try this compound too: `O=[N+]([O-])c1c(S(=O)(=O)O)cc2cc(S(=O)(=O)O)ccc2c1[N+](=O)[O-]`
Reply text: -1

Inquiry: Try this compound too: `COc1cc(CNC(=O)CSc2nc3ccccc3c(=O)n2Cc2cc(OC)c(OC)c(OC)c2)cc(OC)c1OC`
Reply text: -1

====

system: MCF7 breast; assay: NCI-60 one-dose screen, 48 h; settings: 10 µM unless noted
About 83,000 compounds went through this panel and 20% of them were active in at least one assay; those are over-represented in the sample as a whole. Calls of active or inactive are those of the source. The calls were made as follows: active = growth percent below 10; inactive = the rest.
Choose one outcome from this list and give only that: y (active), n (inactive)

Use the examples below as a reference point.
>  <compound>
Nc1c(C(=O)Nc2cccc([N+](=O)[O-])c2)sc2nc3c(cc12)C(O)CCC3 (stereo not given)

>  <assay system>
MCF7 breast

>  <class>
n

$$$$
>  <compound>
COc1ccc(Cn2cc(COc3cc(/C=C/C(=O)c4cc(OC)c(OC)c(OC)c4)ccc3OC)nn2)cc1

>  <assay system>
MCF7 breast

>  <class>
n

$$$$
>  <compound>
COc1ccc(-c2nc(-c3nc4ccc(F)cc4[nH]3)cc3c2[nH]c2ccccc23)cc1

>  <assay system>
MCF7 breast

>  <class>
n

$$$$
>  <compound>
COc1ccc(-c2nnc(COc3ccc(NC(=O)Nc4ccc(Cl)c(C(F)(F)F)c4)cc3F)o2)cc1

>  <assay system>
MCF7 breast

>  <class>
y

$$$$
>  <compound>
COc1cc2oc(-c3cccc(NC(=O)Nc4ccc5c(c4)OCO5)c3)cc(=O)c2c(OC)c1OC

>  <assay system>
MCF7 breast

>  <class>
n

$$$$

Inquiry: Outcome? `CC[C@]1(O)C[C@@H]2CN(Cc3c([nH]c4ccccc34)[C@@](C(=O)OC)(c3cc4c(cc3OC)N(C)[C@H]3[C@@](O)(C(=O)OC)[C@H](OC(C)=O)[C@]5(CC)[C@@H]6C[C@@H]6CN6CC[C@]43[C@@H]65)C2)C1`
Reply text: n

Inquiry: Try this compound too: `CCCS(=O)(=O)c1nc(NC2CC2)cc(-c2ccc3c(ccn3C3CC(C)(C)NC(C)(C)C3)c2)n1`
Reply text: y

Inquiry: Try this compound too: `COc1ccc(/C=C/C(=O)c2ccc(B(O)O)cc2)cc1O`
Reply text: n

Inquiry: Try this compound too: `CCO/C=N/NC(=O)c1ccncc1`
Reply text: n

Inquiry: Try this compound too: `O=C(O)c1cn(C2CC2)c2cc(N3CCN(S(=O)(=O)c4ccc(Cl)c(Cl)c4)CC3)c(F)cc2c1=O`
Reply text: n

Inquiry: Try this compound too: `COc1ccccc1CNCCCN1C(=O)c2ccc3c4c(ccc(c24)C1=O)C(=O)N(CCCNCCCCNCCCCN)C3=O`
Reply text: y

Inquiry: Try this compound too: O=C(COc1ccccc1)N1N=C(c2ccc(Cl)cc2)CC1c1c[nH]c2ccccc12 (stereo not given)
Reply text: n

Inquiry: Try this compound too: `CC/C=C\C/C=C\C[C@H]1C/C=C2/C(=O)C=C[C@H]2C/C=C\CCC(=O)O1`
Reply text: n

Inquiry: Try this compound too: `Cc1ccc(Cn2c(-c3nonc3N)nc3ccccc32)cc1`
Reply text: n

Inquiry: Try this compound too: `c1ccn2nnnc2c1`
Reply text: n
